System: HCC1937
Test: In vitro efficacy of free drug silvestrol compounds, HCC1937
Assay type: cell-based
Conditions: Homo sapiens; HCC1937 cell line
Source text: The CellTiter-Glo® Luminescent Cell Viability Assay is a commercially available (Promega Corp., Madison, Wis.), homogeneous assay method based on the recombinant expression of Coleoptera luciferase (U.S. Pat. Nos. 5,583,024; 5,674,713; 5,700,670). This cell proliferation assay determines the number of viable cells in culture based on quantitation of the ATP present, an indicator of metabolically active cells (Crouch et al (1993) J. Immunol. Meth. 160:81-88; U.S. Pat. No. 6,602,677). […]
MEASUREMENT TYPE: IC50 (nM)

* COC(=O)[C@H]1[C@@H](O)[C@@]2(O)c3c(OC)cc(O[C@@H]4O[C@@H](CCN)CO[C@H]4OC)cc3O[C@@]2(c2ccc(OC)cc2)[C@@H]1c1ccccc1 [amino silvestrol analog] | 0.66
